Cited source for all entries: a melting point compilation (Tetko et al.; mined from patent text by program, amines drawn as free bases though some values may be those of a salt)

quantity-name: melting point

Past entries and their recorded results:
CC(CC1(c2ccccc2)C=CCC=C1)N(C)C (stereo not given) ... 87 to 90 °C
N=c1[nH]ccn1Cc1ccc(Cl)nc1 ... 188 °C
O=C(c1ccc(Cl)cc1)N(c1ccccc1)c1ccc(OCc2ccccc2)cc1 ... 132 to 136 °C
Nc1ccc2c3c1c(=O)c(C(=O)O)cn3CCC2 ... > 300 °C
COc1ccc(Br)c2c1CC(NC(C1CC1)C1CC1)CC2 (single isomer, unassigned; (-)) ... 153 to 154 °C
COc1cc(C=CC(=O)c2cccc(F)c2)cc(OC)c1 ... 89.5 to 90.3 °C
Cc1cc(CNC(=O)c2cc(-c3ccc(-c4ccccc4)cc3)nn2C)ccc1OC(C)(C)C(=O)O ... 90 to 95 °C
CCCCc1nc2c(N)nc3cc(-c4ccccc4OCCC)ccc3c2n1CC(C)C ... 174 to 176 °C

Query molecule follows.
What does the data say about its melting point? Entry: CCC(CCCc1cc(OC)c(OC)c(OC)c1)(c1cccs1)N(C)C (stereo not given)
62 to 63 °C

====

quantity-name: melting point

Past entries and their recorded results:
CCc1c([N+](=O)[O-])c(C(N)=O)nn1CCOC ... 140 °C
CCCCCCCCCCOc1cnc(-c2ccc(CCCCCC(C)O)cc2)nc1 (stereo not given) ... 78 to 79 °C

What does the data say about its melting point? Entry: Cc1ccc(-c2cccc(/C=C/C(=O)Nc3ccc(CN4CCN(Cc5ccc6c(c5)OCO6)CC4)cc3)c2)cc1
204 to 207 °C

What does the data say about its melting point? Entry: O=C1NCCc2[nH]c3c(OCc4ccccc4)cccc3c21
182 to 185 °C

What does the data say about its melting point? Entry: CCCCC(=O)OCCOCn1cnc2c(=O)[nH]c(N)nc21
215 to 217 °C

What does the data say about its melting point? Entry: O=C1c2ccccc2C(=O)N1CCc1ccc(CCC2CCCCC2)cc1
135 to 138 °C

What does the data say about its melting point? Entry: COc1ccc(-c2cc(CN3CCN(CCO)CC3)c(=O)n(CC=Cc3ccc(Cl)cc3)n2)cc1F
133 to 135 °C

What does the data say about its melting point? Entry: CN1CCC(c2c[nH]c3ccc(Sc4ccccc4)cc23)CC1
147 to 150 °C

What does the data say about its melting point? Entry: CC(C)(C)OC(=O)N1CCC(n2nnc(-c3cnc(-c4ccccc4)nc3)n2)CC1
178 to 180 °C

What does the data say about its melting point? Entry: CN(C)c1ccc(C(=CC=CC2N(C)c3ccccc3C2(C)C)c2ccc(N(C)C)cc2)cc1 (stereo not given)
182 to 183 °C

What does the data say about its melting point? Entry: CN1C(=O)C2C3C=CC(C3)C2(c2ccc(F)c(F)c2)C1=O (stereo not given)
116 to 120 °C

What does the data say about its melting point? Entry: COC(=O)c1cc(N)c(C)c(-n2cccc2)c1
112 °C

What does the data say about its melting point? Entry: CC(C)(C)OC(=O)N[C@H](Cc1ccc(C(F)(F)F)cc1)[C@@H](O)c1ccc(F)cc1 (racemic)
158 to 159 °C

What does the data say about its melting point? Entry: CC(=O)NC(Cc1ccc(CC(=O)OC(C)(C)C)cc1)C(=O)OCc1ccccc1 (stereo not given)
170 to 172 °C

What does the data say about its melting point? Entry: CC1=C(N)C(C)C2CC(C)(CC3=CCN(c4ccc(-n5ccnc5)cc4)CC3)OC2=C1C (stereo not given)
161 to 163 °C

What does the data say about its melting point? Entry: Fc1ccc2[nH]c3c(c2c1)CN(CCc1ccncc1)CC3
233 to 235 °C

What does the data say about its melting point? Entry: O=c1ccc2nc3ccccc3sc-2c1Cl
221 °C

What does the data say about its melting point? Entry: Cc1c(F)cc(C(=O)NC2CC2)cc1-n1cc(Br)nc(NC2(c3ccccc3OCCN(C)C(=O)OCc3ccccc3)CC2)c1=O
116 to 120 °C

What does the data say about its melting point? Entry: CN1CCN(c2cc3nc(C(C)(C)C)sc3cc2NC(=S)N2CCCCC2)CC1
202 to 206 °C

What does the data say about its melting point? Entry: CCSc1ccc(Cl)c(C#N)n1
46 to 48 °C

What does the data say about its melting point? Entry: Nc1c(Cl)ncnc1Nn1cccc1
130 to 132 °C

What does the data say about its melting point? Entry: O=[N+]([O-])c1ccnc(N2CCNCC2)c1
92 to 93 °C
